// provenance: ChEMBL document CHEMBL2218924

Give residual activity for every item shown.
Target: Serine/threonine-protein kinase 4 (Homo sapiens) (UniProt Q13043)
Sequence (Q13043 whole entry): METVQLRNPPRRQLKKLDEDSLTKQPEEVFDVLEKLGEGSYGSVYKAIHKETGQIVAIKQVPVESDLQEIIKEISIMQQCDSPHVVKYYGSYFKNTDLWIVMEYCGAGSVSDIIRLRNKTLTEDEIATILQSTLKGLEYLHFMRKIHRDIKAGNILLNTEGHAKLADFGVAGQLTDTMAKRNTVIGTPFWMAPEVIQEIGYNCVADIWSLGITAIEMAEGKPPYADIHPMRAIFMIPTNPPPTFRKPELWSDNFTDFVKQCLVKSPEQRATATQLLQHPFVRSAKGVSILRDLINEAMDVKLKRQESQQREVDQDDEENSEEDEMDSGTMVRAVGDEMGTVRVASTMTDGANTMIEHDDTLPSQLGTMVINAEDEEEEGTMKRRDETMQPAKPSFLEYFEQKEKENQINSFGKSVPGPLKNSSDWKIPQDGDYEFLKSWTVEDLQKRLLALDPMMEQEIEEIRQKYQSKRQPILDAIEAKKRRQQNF
Conditions: at 10 µM
Number in %, nothing else.

Entry under review: Cc1cccc(-c2[nH]c(C(C)(C)C)nc2-c2ccc3c(c2)OCO3)n1 . Reported residual activity?
105

Also need O=C1NC(=O)c2cc(Nc3ccc(F)cc3)c(Nc3ccc(F)cc3)cc21 , thanks.
100

Also need N#Cc1cnc2cnc(NCc3cccnc3)cc2c1Nc1ccc(F)c(Cl)c1 , thanks.
91

Also need Ic1cccc(CSc2nnc(-c3ccncc3)o2)c1 , thanks.
101

Also need CO[C@H]1C[C@@H]2CC[C@@H](C)[C@@](O)(O2)C(=O)C(=O)N2CCCC[C@H]2C(=O)O[C@H]([C@H](C)C[C@@H]2CC[C@@H](O)[C@H](OC)C2)CC(=O)[C@H](C)/C=C(\C)[C@@H](O)[C@@H](OC)C(=O)[C@H](C)C[C@H](C)/C=C/C=C/C=C/1C , thanks.
97

Also need Oc1n[nH]c2nnc(-c3c(-c4ccccc4)nn4ccccc34)cc12 , thanks.
96

Also need c1ccc(-c2n[nH]c3c2oc2ccccc23)cc1 , thanks.
58

Also need O=c1cc(-c2cccc3c2Sc2ccccc2S3)oc(N2CCOCC2)c1 , thanks.
109

Also need Nc1n[nH]c2nnc(-c3c(-c4ccccc4)nn4ccccc34)cc12 , thanks.
87

Also need CN(C)CCCn1cc(C2=C(c3c[nH]c4ccccc34)C(=O)NC2=O)c2ccccc21 , thanks.
9

Also need Oc1ccc(-c2nc(-c3ccc(F)cc3)c(-c3ccncc3)[nH]2)cc1 , thanks.
113

Also need O=C(O)c1ccc2c3c1cccc3c(=O)n1c3ccccc3nc21 , thanks.
72

Also need COc1cc2ncnc(N3CCN(C(=O)Nc4ccc(Oc5ccccc5)cc4)CC3)c2cc1OC , thanks.
88

Also need COc1cc2ncnc(Nc3ccc(Oc4ccccc4)cc3)c2cc1OC , thanks.
93

Also need CN(C)c1ccc(/C=C2\C(=O)Nc3ccccc32)cc1 , thanks.
74

Also need N#CCCc1ccc2c(c1)-c1[nH]c3ccc([N+](=O)[O-])cc3c1CC(=O)N2 , thanks.
6

Also need Cc1nc2cc3nc(-c4cccs4)cnc3cc2n1C , thanks.
94

Also need CO[C@H]1[C@@H](OC)C[C@H](C)[C@@H](OC)C2=CC(=O)C=C(NC(=O)/C(C)=C/C=C/[C@H](OC)[C@@H](OC(N)=O)/C(C)=C/[C@@H]1C)C2=O , thanks.
108

Also need O=Nc1c(-c2c(O)[nH]c3ccccc23)[nH]c2ccccc12 , thanks.
2

====

Molecular target: Ephrin type-A receptor 7 (Homo sapiens)
Conditions: at 10 µM
The label is Condition met for residual activity below 90% and Condition not met for residual activity equal to or exceeding 90%.

Given the entry COc1ccc(C(=O)Nc2sc3c(c2C(N)=O)CCCC3)cc1OC , would its reported residual activity be below 90%?
Condition met

Also need CC(=O)O/N=C1\C(=C2\C(=O)Nc3cc(Br)ccc32)Nc2ccccc21 , thanks.
Condition met

Also need O=C1NC(=O)/C(=C/c2ccc3c(c2)OC(F)(F)O3)S1 , thanks.
Condition not met

Also need Cc1cccc(-c2[nH]c(C(C)(C)C)nc2-c2ccc3c(c2)OCO3)n1 , thanks.
Condition not met

Also need CC(C)n1cnc2c(NCc3ccccc3)nc(NCCCO)nc21 , thanks.
Condition met

Also need Ic1cccc(CSc2nnc(-c3ccncc3)o2)c1 , thanks.
Condition met

Also need CO[C@@H]1[C@H](N(C)C(=O)c2ccccc2)C[C@H]2O[C@]1(C)n1c3ccccc3c3c4c(c5c6ccccc6n2c5c31)C(=O)NC4 , thanks.
Condition met
